test system: human beta-coronavirus OC43; assay: microbe, parasite or virus in culture; assay type: cell-based; details: Betacoronavirus 1, OC43, HeLa, 144 h, OC43 in HeLa cells, 6 days at 33° C., class symbols; read-out: EC50
Consider the following molecules; for each one, report its EC50.

Item under review: O=C1NCC[C@H]1C[C@H](NC(=O)[C@@H]1[C@H]2CCC[C@H]2CN1C(=O)c1cc2c(OC(F)(F)F)cccc2[nH]1)C(=O)CO [Compound 64] . Reported EC50?
< 100 nM

What measured EC50 goes with O=C(NCc1ccccc1)C(=O)C(C[C@@H]1CCNC1=O)NC(=O)[C@@H]1CC2(CC2)CN1C(=O)c1cc2ccccc2[nH]1 (stereo partly drawn) [Compound 9] ?
100 to 1000 nM

Any idea what EC50 was measured for O=C1NCC[C@H]1C[C@H](NC(=O)[C@@H]1[C@H]2CCC[C@H]2CN1C(=O)c1cc2c(OC3CC3)cc(Cl)cc2[nH]1)C(=O)CO [Compound 138] ?
< 100 nM

Quick one: EC50 of CO[C@@H]1C[C@@H](C(=O)NC(C[C@@H]2CCNC2=O)C(=O)C(=O)NCc2ccccc2)N(C(=O)c2cc3ccccc3[nH]2)C1 (stereo partly drawn) [Compound 12] ?
10000 to 100000 nM

Fill in the blank: the reported EC50 of O=C1NCC[C@H]1C[C@H](NC(=O)[C@@H]1[C@H]2CCC[C@H]2CN1C(=O)c1cc2c(Cl)cc(Oc3ccccc3)cc2[nH]1)C(=O)CO [Compound 129] is ____.
< 100 nM

So what does the record say about EC50 for COc1cccc2[nH]c(C(=O)N3C[C@@H]4CCC[C@@H]4[C@H]3C(=O)N[C@@H](C[C@H]3CC(C)(C)NC3=O)C(=O)CO)cc12 [Compound 70_2] ?
1000 to 10000 nM
